- Experiment: Cytoprotection in mouse CRL2181 cells assessed as reduction in UV-oxidized LDL-induced cytotoxicity by measuring cell viability at 1 uM after 24 hrs by MTT assay relative to untreated control
- Assay type: functional
Could you please report measured Activity for the items listed next?
Numbers only, in %.

Guide cases for Activity, answers given:
COc1cc(/C=N/NC(=O)c2ccncc2)c(O)cc1O = 18
COc1cc(/C=N/Nc2nc3ccccc3s2)cc(OC)c1O = 39
COc1cc(/C=N/NC(=O)c2ccncc2)cc(OC)c1O = 34
COc1cc(/C=N/NC(=O)OCc2ccccc2)cc(OC)c1OC = 5
COc1cc(/C=N/NC(=O)OCc2ccccc2)ccc1O = 73

Now consider the entry below.
Exercise: So what does the record say about Activity for `COc1cc(/C=N/Nc2nc3ccccc3s2)cc(OC)c1OC` ?
Solution: 4

====

- Experiment: Antioxidant activity assessed as DPPH radical scavenging activity by UV-Visible spectrophotometry
- Format: physicochemical
Parameter measured: IC50
Numeric answer plus unit only.

Could I get IC50 for every one of these entries?
1. COc1cc(/C=N/N(C)c2nc3ccccc3s2)ccc1O
2. O=C(N/N=C/c1ccc(O)c(O)c1)OCc1ccccc1
3. COc1cc(/C=N/Nc2nncc3ccccc23)ccc1O.Cl
4. COc1cc(/C=N/NC(=O)OCc2ccccc2)cc(O)c1O

Solution:
26.6 µM
7.3 µM
19.9 µM
21.3 µM

====

- Experiment: Antioxidant activity assessed as superoxide anion radical scavenging activity at 10 uM by PMS-NADH-NBT system based spectrophotometry
- Assay type: physicochemical
Could you please report measured Activity for the items listed next?
Numeric answer plus unit only.

Guide cases for Activity, answers given:
Cc1c(C)c2c(c(C)c1O)CCC(C)(C(=O)O)O2 (stereo not drawn) = 22.2%
COc1cc(/C=N/Nc2nncc3ccccc23)cc(O)c1O.Cl = 36.7%
COc1cc(/C=N/Nc2nc3ccccc3s2)cc(OC)c1O = 35%
Oc1ccc(/C=N/Nc2nc3ccccc3s2)cc1O = 41.7%
COc1cc(/C=N/N(C)c2nc3ccccc3s2)cc(OC)c1O = 43.3%

Could I get Activity for every one of these entries?
1. O=C(/C=C/c1ccc(O)c(O)c1)O[C@@H]1C[C@](O)(C(=O)O)C[C@@H](O)[C@H]1O
2. COc1cc(/C=N/Nc2nc3ccccc3s2)cc(OC)c1OC
3. COc1cc(/C=N/NC(=O)OCc2ccccc2)cc(O)c1O

Solution:
1. 35.5%
2. 34%
3. 41.4%

====

- Experiment: Cytoprotection in mouse CRL2181 cells assessed as reduction in UV-oxidized LDL-induced cytotoxicity by measuring cell viability at 1 uM after 24 hrs by MTT assay relative to untreated control
- Assay type: functional
Could you please report measured Activity for the items listed next?
Numbers only, in %.

Guide cases for Activity, answers given:
O=C(N/N=C/c1ccc(O)c(O)c1)OCc1ccccc1 = 48
COc1cc(/C=N/Nc2nncc3ccccc23)cc(OC)c1O = 46
COc1cc(/C=N/Nc2nc3ccccc3s2)cc(O)c1O = 38

Exercise: So what does the record say about Activity for `Oc1ccc(/C=N/Nc2nc3ccccc3s2)cc1O` ?
Solution: 33

====

- Experiment: Cytoprotection in mouse CRL2181 cells assessed as reduction in UV-oxidized LDL-induced cytotoxicity by measuring cell viability at 1 uM after 24 hrs by MTT assay relative to untreated control
- Format: functional
Could you please report measured Activity for the items listed next?
Give bare numbers, in %.

COc1cc(/C=N/N(C)c2nc3ccccc3s2)cc(OC)c1O = 107
COc1cc(/C=N/N2C(=O)CSC2=S)ccc1O = 34
COc1cc(/C=N/Nc2nc3ccccc3s2)ccc1O = 44
Cl.Oc1ccc(/C=N/Nc2nncc3ccccc23)cc1O = 34
COc1cc(/C=N/Nc2nncc3ccccc23)ccc1O.Cl = 24

Could I get Activity for every one of these entries?
1. COc1cc(/C=N/N(C)C(=O)OCc2ccccc2)cc(OC)c1OC.Cl
2. O=C1CSC(=S)N1/N=C/c1ccccc1O
3. COc1cc(/C=N/NC(=O)c2ccncc2)cc(OC)c1OC
4. COc1cc(/C=N/N2C(=O)CSC2=S)cc(OC)c1O
5. O=C(N/N=C/c1ccccc1O)OCc1ccccc1
6. O=C(N/N=C/c1ccc(O)c(O)c1)c1ccncc1
7. COc1cc(/C=N/Nc2nncc3ccccc23)cc(OC)c1OC.Cl

Solution:
6
26
4
53
24
84
6
